Each record here notes measured Mean (RFU/s).
biological target: Proteinase K (Parengyodontium album); construct: purchased Roche; assay: Proteinase K inhibition, fluorogenic substrate assay (Suc-Ala-Ala-Pro-Phe-AMC); type: biochemical, Tritirachium album; conditions: Proteinase K; inhibitor concentration 0.457247 nM; 40 min pre-incubation
Write the number in RFU/s without appending the unit.

Reference set, count: 5
| molecule | test system | unit text | Mean (RFU/s) |
| --- | --- | --- | --- |
| C/C=C1\NC(=O)[C@@H](NC(=O)[C@@H](NC(=O)[C@H](C)NC(=O)CCC)[C@@H](C)O)[C@@H](C)OC(=O)[C@H](C(C)C)NC(=O)[C@H](Cc2ccc(O)c(Br)c2)N(C)C(=O)[C@H](Cc2ccccc2)N2C(=O)[C@H](CC[C@H]2O)NC1=O [Molassamide B, molassamide B] | Proteinase K (Parengyodontium album) | RFU/s | 6.22 |
| C/C=C1\NC(=O)[C@@H](NC(=O)[C@@H](NC(=O)[C@H](C)NC(=O)CCC)[C@@H](C)O)[C@@H](C)OC(=O)[C@H](C(C)C)NC(=O)[C@H](Cc2ccc(O)cc2)N(C)C(=O)[C@H](Cc2ccccc2)N2C(=O)[C@H](CC[C@H]2O)NC1=O [Molassamide, molassamide] | Proteinase K (Parengyodontium album) | RFU/s | 6.371 |
| CC=C1NC(=O)[C@@H](NC(=O)[C@@H](NC(=O)[C@@H]2CCCN2C(=O)CCC)[C@@H](C)OC(=O)C2CCCN2C(=O)CCC)[C@@H](C)OC(=O)[C@H](C(C)C)NC(=O)[C@H](Cc2ccc(O)cc2)N(C)C(=O)[C@H](Cc2ccccc2)N2C(=O)[C@H](CC[C@H]2O)NC1=O (stereo partly drawn) [Rivulariapeptolide 1155, rivulariapeptolide 1155] | Proteinase K (Parengyodontium album) | RFU/s | 6.403 |
| CC=C1NC(=O)[C@@H](NC(=O)[C@@H](NC(=O)[C@@H]2CCCN2C(=O)CCC)[C@@H](C)O)[C@@H](C)OC(=O)[C@H](C(C)C)NC(=O)[C@H](Cc2ccc(O)cc2)N(C)C(=O)[C@H](Cc2ccccc2)N2C(=O)[C@H](CC[C@H]2O)NC1=O [Rivulariapeptolide 988, rivulariapeptolide 988] | Proteinase K (Parengyodontium album) | RFU/s | 6.172 |
| CCCC(=O)N1CCCC1C(=O)NC(C(=O)NC1C(=O)NC(CC(C)C)C(=O)NC2CCC(O)N(C2=O)C(Cc2ccccc2)C(=O)N(C)C(Cc2ccc(O)cc2)C(=O)NC(C(C)C)C(=O)OC1C)C(C)OC(=O)C1CCCN1C(=O)CCC (stereo not drawn) [Rivulariapeptolide 1185, rivulariapeptolide 1185] | Proteinase K (Parengyodontium album) | RFU/s | 6.316 |

Quick note, Mean (RFU/s) for CC=C1NC(=O)[C@@H](NC(=O)[C@@H](NC(=O)[C@@H]2CCCN2C(=O)CCC)[C@@H](C)OC(=O)C2CCCN2C(=O)CCC)[C@@H](C)OC(=O)[C@H](C(C)C)NC(=O)[C@H](Cc2ccc(O)cc2)N(C)C(=O)[C@H](CC(C)C)N2C(=O)[C@H](CC[C@H]2O)NC1=O (stereo partly drawn) [Rivulariapeptolide 1121, rivulariapeptolide 1121] landed at 6.268

###

target: Proteinase K (Parengyodontium album, UniProt P06873); construct: purchased Roche; assay: Proteinase K inhibition, fluorogenic substrate assay (Suc-Ala-Ala-Pro-Phe-AMC); assay type: biochemical, Tritirachium album; conditions: Proteinase K; inhibitor concentration 3000 nM; 40 min pre-incubation
Sequence (P06873 106-384): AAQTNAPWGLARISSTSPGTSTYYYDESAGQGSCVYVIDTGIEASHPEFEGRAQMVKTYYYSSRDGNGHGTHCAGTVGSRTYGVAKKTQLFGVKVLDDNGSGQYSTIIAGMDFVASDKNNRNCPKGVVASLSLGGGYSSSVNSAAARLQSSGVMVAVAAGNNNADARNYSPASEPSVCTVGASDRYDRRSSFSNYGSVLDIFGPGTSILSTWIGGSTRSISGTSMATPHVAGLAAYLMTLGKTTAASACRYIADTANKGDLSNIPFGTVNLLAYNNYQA
measured endpoint: Mean (RFU/s)
Write the number in RFU/s without appending the unit.

Reference set, count: 5
| compound | Mean (RFU/s) |
| --- | --- |
| C/C=C1\NC(=O)[C@@H](NC(=O)[C@@H](NC(=O)[C@H](C)NC(=O)CCC)[C@@H](C)O)[C@@H](C)OC(=O)[C@H](C(C)C)NC(=O)[C@H](Cc2ccc(O)cc2)N(C)C(=O)[C@H](Cc2ccccc2)N2C(=O)[C@H](CC[C@H]2O)NC1=O [Molassamide, molassamide] | 0 |
| C/C=C1\NC(=O)[C@@H](NC(=O)[C@@H](NC(=O)[C@H](C)NC(=O)CCC)[C@@H](C)O)[C@@H](C)OC(=O)[C@H](C(C)C)NC(=O)[C@H](Cc2ccc(O)c(Br)c2)N(C)C(=O)[C@H](Cc2ccccc2)N2C(=O)[C@H](CC[C@H]2O)NC1=O [Molassamide B, molassamide B] | 0 |
| CC=C1NC(=O)[C@@H](NC(=O)[C@@H](NC(=O)[C@@H]2CCCN2C(=O)CCC)[C@@H](C)OC(=O)C2CCCN2C(=O)CCC)[C@@H](C)OC(=O)[C@H](C(C)C)NC(=O)[C@H](Cc2ccc(O)cc2)N(C)C(=O)[C@H](CC(C)C)N2C(=O)[C@H](CC[C@H]2O)NC1=O (stereo partly drawn) [Rivulariapeptolide 1121, rivulariapeptolide 1121] | 0 |
| CCCC(=O)N1CCCC1C(=O)NC(C(=O)NC1C(=O)NC(CC(C)C)C(=O)NC2CCC(O)N(C2=O)C(Cc2ccccc2)C(=O)N(C)C(Cc2ccc(O)cc2)C(=O)NC(C(C)C)C(=O)OC1C)C(C)OC(=O)C1CCCN1C(=O)CCC (stereo not drawn) [Rivulariapeptolide 1185, rivulariapeptolide 1185] | 0.04267 |
| CC=C1NC(=O)[C@@H](NC(=O)[C@@H](NC(=O)[C@@H]2CCCN2C(=O)CCC)[C@@H](C)OC(=O)C2CCCN2C(=O)CCC)[C@@H](C)OC(=O)[C@H](C(C)C)NC(=O)[C@H](Cc2ccc(O)cc2)N(C)C(=O)[C@H](Cc2ccccc2)N2C(=O)[C@H](CC[C@H]2O)NC1=O (stereo partly drawn) [Rivulariapeptolide 1155, rivulariapeptolide 1155] | 0.027 |

Lab note: next compound to report on.
Quick note, Mean (RFU/s) for CC=C1NC(=O)[C@@H](NC(=O)[C@@H](NC(=O)[C@@H]2CCCN2C(=O)CCC)[C@@H](C)O)[C@@H](C)OC(=O)[C@H](C(C)C)NC(=O)[C@H](Cc2ccc(O)cc2)N(C)C(=O)[C@H](Cc2ccccc2)N2C(=O)[C@H](CC[C@H]2O)NC1=O [Rivulariapeptolide 988, rivulariapeptolide 988] landed at 0.022

###

Each record here notes measured Mean (RFU/s).
molecular target: Elastase (Sus scrofa, UniProt P00772); construct: purchased Sigma-Aldrich; assay: Elastase inhibition, fluorogenic substrate assay (MeOSuc-Ala-Ala-Pro-Val-AMC); format: biochemical, Sus domesticus; conditions: Elastase; inhibitor concentration 3000 nM; 40 min pre-incubation
Sequence (P00772 27-266): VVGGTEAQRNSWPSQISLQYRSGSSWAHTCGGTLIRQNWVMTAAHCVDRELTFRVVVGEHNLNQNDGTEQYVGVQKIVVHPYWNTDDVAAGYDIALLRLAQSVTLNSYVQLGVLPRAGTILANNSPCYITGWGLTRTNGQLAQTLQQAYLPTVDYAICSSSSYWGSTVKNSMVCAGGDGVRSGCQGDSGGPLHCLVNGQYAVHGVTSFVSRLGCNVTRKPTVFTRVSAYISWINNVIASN

| compound | test system | Mean (RFU/s) |
| --- | --- | --- |
| C/C=C1\NC(=O)[C@@H](NC(=O)[C@@H](NC(=O)[C@H](C)NC(=O)CCC)[C@@H](C)O)[C@@H](C)OC(=O)[C@H](C(C)C)NC(=O)[C@H](Cc2ccc(O)c(Br)c2)N(C)C(=O)[C@H](Cc2ccccc2)N2C(=O)[C@H](CC[C@H]2O)NC1=O [Molassamide B, molassamide B] | Elastase (Sus scrofa, UniProt P00772) | 0 RFU/s |
| CC=C1NC(=O)[C@@H](NC(=O)[C@@H](NC(=O)[C@@H]2CCCN2C(=O)CCC)[C@@H](C)OC(=O)C2CCCN2C(=O)CCC)[C@@H](C)OC(=O)[C@H](C(C)C)NC(=O)[C@H](Cc2ccc(O)cc2)N(C)C(=O)[C@H](Cc2ccccc2)N2C(=O)[C@H](CC[C@H]2O)NC1=O (stereo partly shown) [Rivulariapeptolide 1155, rivulariapeptolide 1155] | Elastase (Sus scrofa, UniProt P00772) | 0 RFU/s |
| CC=C1NC(=O)[C@@H](NC(=O)[C@@H](NC(=O)[C@@H]2CCCN2C(=O)CCC)[C@@H](C)O)[C@@H](C)OC(=O)[C@H](C(C)C)NC(=O)[C@H](Cc2ccc(O)cc2)N(C)C(=O)[C@H](Cc2ccccc2)N2C(=O)[C@H](CC[C@H]2O)NC1=O [Rivulariapeptolide 988, rivulariapeptolide 988] | Elastase (Sus scrofa, UniProt P00772) | 0 RFU/s |

Lab note: next compound to report on.
Quick note, Mean (RFU/s) for CCCC(=O)N1CCCC1C(=O)NC(C(=O)NC1C(=O)NC(CC(C)C)C(=O)NC2CCC(O)N(C2=O)C(Cc2ccccc2)C(=O)N(C)C(Cc2ccc(O)cc2)C(=O)NC(C(C)C)C(=O)OC1C)C(C)OC(=O)C1CCCN1C(=O)CCC (stereo not shown) [Rivulariapeptolide 1185, rivulariapeptolide 1185] landed at 0 RFU/s

###

target: Elastase (Sus scrofa, UniProt P00772); construct: purchased Sigma-Aldrich; experiment: Elastase inhibition, fluorogenic substrate assay (MeOSuc-Ala-Ala-Pro-Val-AMC); type: biochemical, Sus domesticus; conditions: Elastase; inhibitor concentration 0.152416 nM; 40 min pre-incubation
Each record here notes measured Mean (RFU/s).
Write the number in RFU/s without appending the unit.

| compound | Mean (RFU/s) |
| --- | --- |
| CC=C1NC(=O)[C@@H](NC(=O)[C@@H](NC(=O)[C@@H]2CCCN2C(=O)CCC)[C@@H](C)OC(=O)C2CCCN2C(=O)CCC)[C@@H](C)OC(=O)[C@H](C(C)C)NC(=O)[C@H](Cc2ccc(O)cc2)N(C)C(=O)[C@H](CC(C)C)N2C(=O)[C@H](CC[C@H]2O)NC1=O (stereo partly drawn) [Rivulariapeptolide 1121, rivulariapeptolide 1121] | 0.7923 |
| C/C=C1\NC(=O)[C@@H](NC(=O)[C@@H](NC(=O)[C@H](C)NC(=O)CCC)[C@@H](C)O)[C@@H](C)OC(=O)[C@H](C(C)C)NC(=O)[C@H](Cc2ccc(O)c(Br)c2)N(C)C(=O)[C@H](Cc2ccccc2)N2C(=O)[C@H](CC[C@H]2O)NC1=O [Molassamide B, molassamide B] | 0.8437 |

Quick note, Mean (RFU/s) for CC=C1NC(=O)[C@@H](NC(=O)[C@@H](NC(=O)[C@@H]2CCCN2C(=O)CCC)[C@@H](C)O)[C@@H](C)OC(=O)[C@H](C(C)C)NC(=O)[C@H](Cc2ccc(O)cc2)N(C)C(=O)[C@H](Cc2ccccc2)N2C(=O)[C@H](CC[C@H]2O)NC1=O [Rivulariapeptolide 988, rivulariapeptolide 988] landed at 0.8127
